Examples of compounds with documented Activity follow.
- procedureSummary: Cell cycle arrest in human SH-SY5Y cells assessed as accumulation at S phase at 3 times IC50 after 16 hrs by flow cytometry (reference value: 10.6 %)
- Format: functional, cell-based
# number only, unit % dropped from output

Please review the entries below; each comes with its answer.
>>> observed("COc1ccc(/C=C\\c2cc(OC)c(OC)c(OC)c2)cc1O")
11.4
>>> observed("COc1ccc2c(c1O)NC(=O)CN=C2c1cc(OC)c(OC)c(OC)c1")
17.9
>>> observed("COc1ccc2c(c1)NC(=O)CN=C2c1cc(OC)c(OC)c(OC)c1")
19.3

Turning now to a further record.
response.value for COc1cc(C2=NCC(=O)Nc3cc4c(cc32)OCO4)cc(OC)c1OC (field: Activity) = 12.6

====

Measured viability at 1 µM of individual entries
- procedureSummary: Cytotoxicity against human SH-SY5Y cells assessed as cell viability at 1 uM after 48 hrs by MTT assay
- Type: functional
- particulars: read-out: Activity
Note: state the figure and append the unit.

These recorded examples may help you get a feel for the data.
>>> observed("COc1ccc2c(c1)C(c1cc(OC)c(OC)c(OC)c1)=NCC(=O)N2")
"33.9%"
>>> observed("COc1ccc2c(c1O)NC(=O)CN=C2c1cc(OC)c(OC)c(OC)c1")
"27.5%"
>>> observed("COc1cc2c(cc1OC)N(C)C(=O)CN=C2c1cc(OC)c(OC)c(OC)c1")
"105%"

For the next question, use this compound.
viability at 1 µM reported for this compound COc1ccc2c(c1)N(C)C(=O)CN=C2c1cc(OC)c(OC)c(OC)c1 : 32.9%
